Let's look at some molecules and their measured IC50.
- system tested: Prothrombin (Homo sapiens, UniProt P00734)
- assay notes: Thrombin 1536 HTS Dose Response Confirmation. [Related pubchem assays: 1046 (Thrombin 1536 HTS; hits were confirmed in this assay)]
- Assay type: functional
Active and inactive are the calls of the source. Cut-off read from the data, not from the text of the source: actives have a measured IC50 and inactives only a lower limit.
metric name: IC50

COc1cccc(-c2nc3ccccc3c(=O)o2)c1 :: 6.94 µM (active)
Cc1cccc(NC(=S)NC(=O)/C=C/c2ccccc2)n1 :: > 50 µM (not active)
CCn1cc(C(=O)NCc2ccc(Cl)cc2)c(=O)c2cc(S(=O)(=O)N3CCOCC3)ccc21 :: 8.07 µM (active)
Nc1nc(C(=O)N2CCOCC2)nn1C(=O)c1ccc(Cl)cc1 :: 0.00512 µM (active)
Cc1c(-c2cccs2)[n+]([O-])c2c([n+]1[O-])CCC2 :: > 50 µM (not active)
